Target: RXRα (Homo sapiens)
Construct: expressed in transfected cells
Sequence (P19793 1-462): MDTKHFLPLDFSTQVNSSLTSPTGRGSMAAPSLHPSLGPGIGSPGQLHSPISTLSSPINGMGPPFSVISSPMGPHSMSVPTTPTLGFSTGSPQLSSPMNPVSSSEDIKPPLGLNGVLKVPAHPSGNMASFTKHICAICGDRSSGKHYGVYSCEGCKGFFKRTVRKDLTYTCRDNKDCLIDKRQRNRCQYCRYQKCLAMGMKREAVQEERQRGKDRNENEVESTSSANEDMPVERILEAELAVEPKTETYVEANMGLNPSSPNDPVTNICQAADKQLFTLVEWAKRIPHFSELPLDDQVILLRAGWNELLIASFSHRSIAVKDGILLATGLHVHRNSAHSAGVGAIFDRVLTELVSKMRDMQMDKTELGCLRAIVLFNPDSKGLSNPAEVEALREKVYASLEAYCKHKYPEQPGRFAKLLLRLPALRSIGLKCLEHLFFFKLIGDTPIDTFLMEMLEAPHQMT
Test: holoreceptor transactivation assay, RXRα
Type: cell-based
Conditions: holoreceptor transactivation; read-out: RXR Trans. EC50 α
Measured EC50 of individual entries
The reply should be a number in nM, with the unit left off.

These recorded examples may help you get a feel for the data.
{"columns": ["Compound structure", "Result unit", "Experimental result"],
 "data": [
  ["COc1c(\\C(C)=C/C=C/C(C)=C/C(=O)O)cc2c(c1Cl)OC(C)(C)C=C2C(C)C", "nM", 0.1],
  ["CCC1=CC(C)(C)Oc2cc(OC)c(\\C(C)=C/C=C/C(C)=C/C(=O)O)cc21", "nM", 6],
  ["CCOc1c(\\C(CC)=C(F)/C=C/C(C)=C/C(=O)O)cc2c(c1Cl)OC(C)(C)C=C2C(C)C", "nM", 4.8],
  ["CCOc1cc2c(cc1\\C(C)=C/C=C/C(C)=C/C(=O)O)C(C(C)(C)C)=CCC2(C)C", "nM", 0.6],
  ["COc1cc2c(cc1\\C(C)=C(F)/C=C/C(C)=C/C(=O)O)C(C(C)C)=CC(C)(C)O2", "nM", 5],
  ["CCCOc1c(\\C(C)=C(F)/C=C/C(C)=C/C(=O)O)cc2c(c1Br)C(C)(C)CC=C2C(C)C", "nM", 1]
]}

Q. For the compound shown here, "CC/C(=C(F)/C=C/C(C)=C/C(=O)O)c1cc2c(c(Cl)c1OC)OC(C)(C)C=C2C(C)C" , give the reported EC50.
A. 0.02

====

Measured Ki of individual entries
Target sequence: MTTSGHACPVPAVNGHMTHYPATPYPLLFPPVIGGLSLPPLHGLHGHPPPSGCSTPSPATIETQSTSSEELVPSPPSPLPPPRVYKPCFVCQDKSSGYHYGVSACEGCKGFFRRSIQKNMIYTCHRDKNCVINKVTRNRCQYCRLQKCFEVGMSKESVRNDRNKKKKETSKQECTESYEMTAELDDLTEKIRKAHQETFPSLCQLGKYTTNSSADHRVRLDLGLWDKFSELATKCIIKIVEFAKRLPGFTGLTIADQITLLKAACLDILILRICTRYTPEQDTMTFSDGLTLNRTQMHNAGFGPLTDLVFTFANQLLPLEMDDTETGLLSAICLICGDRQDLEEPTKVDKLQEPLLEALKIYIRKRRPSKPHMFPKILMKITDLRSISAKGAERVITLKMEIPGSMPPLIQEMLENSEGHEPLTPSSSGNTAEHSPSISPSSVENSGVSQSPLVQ

These recorded examples may help you get a feel for the data.
{"columns": ["Molecule", "Property label", "Experimental result"],
 "data": [
  ["CCOc1cc2c(cc1\\C(CC)=C(F)/C=C/C(C)=C/C(=O)O)C(C)=CC(C)(C)O2 [Compound 132]", "Ki", "548 nM"],
  ["CCOc1c(\\C(C)=C/C=C/C(C)=C/C(=O)O)cc2c(c1Cl)OC(C)(C)C=C2C(C)C [Compound 50]", "Ki", "1300 nM"],
  ["CCCOc1cc2c(cc1\\C(C)=C(F)/C=C/C(C)=C/C(=O)O)C(C(C)C)=CC(C)(C)O2 [Compound 125]", "Ki", "3 nM"]
]}

Then there is this molecule:
Q. For the molecule shown here, COc1cc2c(cc1\C(C)=C/C=C/C(C)=C/C(=O)O)C(C(C)C)=CC(C)(C)O2 [Compound 43] , give the reported Ki.
A. 378 nM

====

Target: RXRα (Homo sapiens, UniProt P19793)
Construct: expressed in transfected cells
Sequence (P19793 1-462): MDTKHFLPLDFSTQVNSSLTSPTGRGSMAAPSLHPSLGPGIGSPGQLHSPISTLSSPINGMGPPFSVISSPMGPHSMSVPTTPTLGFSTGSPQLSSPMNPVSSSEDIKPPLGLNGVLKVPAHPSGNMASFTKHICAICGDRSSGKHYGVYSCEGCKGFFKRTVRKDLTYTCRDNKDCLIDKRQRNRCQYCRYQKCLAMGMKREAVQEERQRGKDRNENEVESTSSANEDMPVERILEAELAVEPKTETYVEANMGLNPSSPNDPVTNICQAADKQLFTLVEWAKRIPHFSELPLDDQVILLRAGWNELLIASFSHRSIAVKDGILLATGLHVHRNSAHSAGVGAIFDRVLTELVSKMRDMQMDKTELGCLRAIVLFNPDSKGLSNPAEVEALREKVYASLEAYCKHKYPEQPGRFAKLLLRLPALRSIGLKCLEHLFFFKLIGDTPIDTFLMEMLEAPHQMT
Assay: holoreceptor transactivation assay, RXRα
Assay type: cell-based
Settings: holoreceptor transactivation; read-out: RXR Trans. EC50 α
Measured EC50 of individual entries
The reply should be a number in nM, with the unit left off.

These recorded examples may help you get a feel for the data.
{"columns": ["Compound", "EC50 (nM)"],
 "data": [
  ["COc1cc2c(cc1\\C(C)=C(F)/C=C/C(C)=C/C(=O)O)C(C(C)(C)C)=CC(C)(C)O2 [Compound 122]", 5],
  ["CCOc1cc2c(cc1\\C(C)=C(F)/C=C/C(C)=C/C(=O)O)C(C(C)C)=CCC2(C)C [Compound A-79]", 1],
  ["CCOc1cc2c(cc1\\C(C)=C/C=C/C(C)=C/C(=O)O)C(CC)=CC(C)(C)O2 [Compound 45]", 78],
  ["CCOc1cc2c(cc1\\C(C)=C(F)/C=C/C(C)=C/C(=O)O)C(C(C)(C)C)=CCC2(C)C [Compound A-82]", 1],
  ["CC/C(=C(F)/C=C/C(C)=C/C(=O)O)c1cc2c(cc1OC)OC(C)(C)C=C2C(C)(C)C [Compound 131]", 6],
  ["CCOc1cc2c(cc1\\C(C)=C(F)/C=C/C(C)=C/C(=O)O)C(C)=CCC2(C)C", 3],
  ["CCOc1c(\\C(CC)=C(F)/C=C/C(C)=C/C(=O)O)cc2c(c1Cl)C(C)(C)CC=C2C(C)C [Compound A-178]", 0.1],
  ["CCOc1cc2c(cc1\\C(C)=C(F)/C=C/C(C)=C/C(=O)O)C=CCC2(C)C [Compound A-76]", 50]
]}

Q. For the compound shown here, CCOc1c(\C(C)=C(F)/C=C/C(C)=C/C(=O)O)cc2c(c1Br)C(C)(C)CC=C2C(C)C [Compound A-169] , give the reported EC50.
A. 0.4

====

Target: RARα (Homo sapiens, UniProt P10276)
Sequence (P10276 1-462): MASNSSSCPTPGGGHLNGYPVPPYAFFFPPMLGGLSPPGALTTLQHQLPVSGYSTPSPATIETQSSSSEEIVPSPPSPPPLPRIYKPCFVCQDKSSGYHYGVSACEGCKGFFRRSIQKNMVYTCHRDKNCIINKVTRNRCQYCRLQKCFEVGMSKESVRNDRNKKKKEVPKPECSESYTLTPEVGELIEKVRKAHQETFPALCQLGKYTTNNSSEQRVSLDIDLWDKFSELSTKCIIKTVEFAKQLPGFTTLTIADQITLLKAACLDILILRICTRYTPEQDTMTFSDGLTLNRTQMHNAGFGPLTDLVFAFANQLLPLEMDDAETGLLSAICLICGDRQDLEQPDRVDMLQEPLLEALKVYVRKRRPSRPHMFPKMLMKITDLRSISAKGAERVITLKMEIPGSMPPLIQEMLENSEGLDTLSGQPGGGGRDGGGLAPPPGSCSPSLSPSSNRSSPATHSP
Test: ligand binding assay, RARα
Settings: read-out: RAR Bind. Ki α
Measured Ki of individual entries

These recorded examples may help you get a feel for the data.
{"columns": ["Compound structure", "Experimental result"],
 "data": [
  ["CCOc1cc2c(cc1\\C(C)=C(F)/C=C/C(C)=C/C(=O)O)C(CC)=CC(C)(C)O2", "> 10000 nM"],
  ["COc1cc2c(cc1\\C(C)=C(F)/C=C/C(C)=C/C(=O)O)C(C(C)(C)C)=CC(C)(C)O2", "800 nM"]
]}

Q. Hi! What's the reported Ki for "COc1c(\C(C)=C(F)/C=C/C(C)=C/C(=O)O)cc2c(c1Cl)OC(C)(C)C=C2C(C)C" on RARα (Homo sapiens, UniProt P10276)?
A. 3400 nM

Q. Now give it for "CC(/C=C/C(F)=C(/C)c1cc2c(c(Cl)c1OC(C)C)OC(C)(C)C=C2C(C)C)=C\C(=O)O" too.
A. 532 nM

Q. Now give it for "CCOc1cc2c(cc1\C(CC)=C(F)/C=C/C(C)=C/C(=O)O)C(C(C)(C)C)=CCC2(C)C" too.
A. 394 nM

These entries and their values trace back to patent US6887896B1.
